Tested on: 786-0 renal
protocol text: NCI tumour cell line growth inhibition, 48 h
Can you tell me TGI for the items I'm about to list?

API: value(readout=TGI, system=786-0 renal) for record "CC1=C(C)C(=O)C(C2=CC(=O)C=CC2=O)=C(C2=CC(=O)C=CC2=O)C1=O"
> 100 µM

API: value(readout=TGI, system=786-0 renal) for record "CC1=NN(c2nc(N)nc(CF)n2)C(C)(C)C1"
> 100 µM

API: value(readout=TGI, system=786-0 renal) for record "[N-]=[N+]=Nc1c([N+](=O)[O-])c(=O)n2c3c(cccc13)CCC2"
30.9 µM

API: value(readout=TGI, system=786-0 renal) for record CCCCCCCCCCCCCCCCCC(=O)Nc1ccn(C2OC(CO)C(O)C2O)c(=O)n1 (centres undefined)
> 100 µM

API: value(readout=TGI, system=786-0 renal) for record CCN(c1cc(C#CCN2CCOCC2)cc(C(=O)NCc2c(C)cc(C)[nH]c2=O)c1C)C1CCC(N(C)CCOC)CC1 (centres undefined)
> 100 µM

API: value(readout=TGI, system=786-0 renal) for record O=c1oc2ccccc2c(O)c1C(C/C(CCN1CCCC1)=N\Nc1ccccc1)c1ccccc1 (centres undefined)
> 100 µM

API: value(readout=TGI, system=786-0 renal) for record "Oc1cc(Br)cc2cc(Cl)cnc12"
38.8 µM

API: value(readout=TGI, system=786-0 renal) for record "CC(=C/c1ccccc1)/C=C1/NC(=S)N(/C=C2\C(=O)Oc3ccccc3C2=O)C1=O"
> 100 µM

API: value(readout=TGI, system=786-0 renal) for record "O=C(NC(=S)Nc1cc(Cl)ccc1O)c1cccc(Br)c1"
> 100 µM

Reference source for all entries: PubChem BioAssay (NCI)
